ASSAY TARGET: human GPR40 (Homo sapiens)
PROTOCOL NOTES: FLIPR intracellular calcium assay in HEK-293 cells transiently expressing GPR40 (with G-protein cocktail)
Format: cell-based
TEST SETTINGS: Additional Fatty Acid Compounds; FLIPR
# binarize pEC50: threshold 5 inclusive, high side 1, low side 0

Example entries and their recorded answers appear below.
[[record]]
compound = "CC/C=C\\C/C=C\\C/C=C\\C/C=C\\C/C=C\\CCCC(=O)O [Eicosa-5Z,8Z,11Z,14Z,17Z-pentaenoic acid]"
qualitative_label = 1

[[record]]
compound = "CC/C=C\\C/C=C\\C/C=C\\C/C=C\\C/C=C\\CCCCCC(=O)O"
qualitative_label = 1


// switching to the query compound
Entry CCCCC[C@H](O)[C@H](O)/C=C/C=C/C=C\C/C=C\CCCC(=O)O [14®, 15(S)-DiHETE] : is its pEC50 no less than 5?
0

* * *

ASSAY TARGET: human GPR40 (Homo sapiens)
PROTOCOL NOTES: FLIPR intracellular calcium assay in HEK-293 cells transiently expressing GPR40 (with G-protein cocktail)
Assay type: cell-based
TEST SETTINGS: Additional Fatty Acid Compounds; FLIPR
REPORTED ENDPOINT: pEC50
Write no unit; give the number alone.

A selection of reference data follows.
[[record]]
molecule = "CC/C=C\\C/C=C\\C/C=C\\CCCCCCCCCCCC(=O)O [Docosa-13Z,16Z,19Z-trienoic acid]"
assay_target = "human GPR40 (Homo sapiens)"
reported_endpoint = "pEC50"
data_value = 5.17

[[record]]
molecule = "CCC=CCC=CCC=CCC=CCC=CC/C=C\\CCC(=O)O [cis-4,7,10,13,16,19-Docosahexaenoic acid]"
assay_target = "human GPR40 (Homo sapiens)"
reported_endpoint = "pEC50"
data_value = 5.79

[[record]]
molecule = "CCCCC/C=C\\C/C=C\\CCCCCCCC(=O)O"
assay_target = "human GPR40 (Homo sapiens)"
reported_endpoint = "pEC50"
data_value = 5.02

[[record]]
molecule = "CCCCCCCCC#CCC#CCC#CCCCC(=O)O"
assay_target = "human GPR40 (Homo sapiens)"
reported_endpoint = "pEC50"
data_value = 5.77


Data request, read-out pEC50, for `CCCCCCCC/C=C/CCCCCCCC(=O)O`
4.87

Continue with `CCCCC/C=C\C/C=C\C/C=C\C/C=C\CCCC(=O)O`
5.04

Continue with `CCCCCCCC/C=C\C/C=C\C/C=C\CCCC(=O)O`
5.60

Continue with `C#CCCCCCCCCCCCCCCCC(=O)O`
5.12

* * *

ASSAY TARGET: human GPR40 (Homo sapiens, UniProt O14842)
Sequence (O14842 whole entry): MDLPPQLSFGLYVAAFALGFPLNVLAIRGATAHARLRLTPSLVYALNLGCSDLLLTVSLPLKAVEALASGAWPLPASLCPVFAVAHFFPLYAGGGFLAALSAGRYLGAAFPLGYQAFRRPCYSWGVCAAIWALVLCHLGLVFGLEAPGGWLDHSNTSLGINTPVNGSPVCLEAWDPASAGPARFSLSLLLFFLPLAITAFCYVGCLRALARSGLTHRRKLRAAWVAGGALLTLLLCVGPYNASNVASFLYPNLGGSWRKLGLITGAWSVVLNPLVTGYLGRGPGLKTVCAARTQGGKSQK
PROTOCOL NOTES: FLIPR intracellular calcium assay in HEK-293 cells transiently expressing GPR40 (with G-protein cocktail)
Type: cell-based
TEST SETTINGS: Additional Fatty Acid Compounds; FLIPR
Each item that follows carries a reported pEC50.
Write no unit; give the number alone.

[[record]]
molecule = "CCCCC/C=C\\C/C=C\\C/C=C\\C/C=C\\CCCCCC(=O)O [Adrenic acid]"
assay_target = "human GPR40 (Homo sapiens, UniProt O14842)"
data_value = 4.87

[[record]]
molecule = "CC/C=C\\C/C=C\\C/C=C\\CCCCCCCCCC(=O)O [Eicosa-11Z,14Z,17Z-trienoic acid]"
assay_target = "human GPR40 (Homo sapiens, UniProt O14842)"
data_value = 4.95

[[record]]
molecule = "CCCCCCCCCCC/C=C\\C/C=C\\CCCC(=O)O [Eicosa-5Z,8Z-dienoic acid]"
assay_target = "human GPR40 (Homo sapiens, UniProt O14842)"
data_value = 5.11

[[record]]
molecule = "CCCCC/C=C\\C/C=C\\C/C=C\\CCCCCCC(=O)O [Dihomo-gamma-linolenic acid]"
assay_target = "human GPR40 (Homo sapiens, UniProt O14842)"
data_value = 5.14


Next:
Data request, read-out pEC50, for CCCCC/C=C\C/C=C\CCCCCCCCCC(=O)O [Eicosa-11Z,14Z-dienoic acid]
4.97
